# TARGET SYSTEM: Butyrylcholinesterase (Equus caballus, UniProt Q9N1N9)
# Sequence (Q9N1N9 whole entry): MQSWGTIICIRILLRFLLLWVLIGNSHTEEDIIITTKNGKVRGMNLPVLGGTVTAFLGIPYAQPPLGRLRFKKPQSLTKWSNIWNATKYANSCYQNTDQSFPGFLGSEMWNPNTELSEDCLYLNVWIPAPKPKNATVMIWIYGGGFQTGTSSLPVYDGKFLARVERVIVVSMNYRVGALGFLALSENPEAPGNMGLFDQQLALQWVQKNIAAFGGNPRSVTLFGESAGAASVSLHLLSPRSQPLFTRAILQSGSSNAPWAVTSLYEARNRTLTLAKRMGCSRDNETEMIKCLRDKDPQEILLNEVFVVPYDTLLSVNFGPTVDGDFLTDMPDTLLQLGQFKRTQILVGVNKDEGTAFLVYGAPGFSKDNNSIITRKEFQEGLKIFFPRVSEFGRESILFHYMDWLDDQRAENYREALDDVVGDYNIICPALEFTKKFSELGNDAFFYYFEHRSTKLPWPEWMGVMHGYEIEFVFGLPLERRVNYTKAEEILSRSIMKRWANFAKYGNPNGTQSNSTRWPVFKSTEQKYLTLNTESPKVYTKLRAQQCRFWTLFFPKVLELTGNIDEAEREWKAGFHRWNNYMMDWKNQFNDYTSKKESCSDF
# MEASUREMENT NOTES: Inhibition of equine serum BuChE using […] as substrate preincubated for 15 mins by Ellman's method
Param label: returns Criterion met when IC50 < 2000 nM, returns Criterion not met otherwise, including exact equality.

> print(dat)
                             molecule.smiles        class.label
 1  COc1ccc2cc3[n+](cc2c1OCCC(=O)NCCc1c[nH]c2ccc(C)cc12)CCc1cc2c(cc1-3)OCO2      Criterion met
 2  COc1cc(/C=C/C(=O)OCCCOc2c(OC)ccc3cc4[n+](cc23)CCc2cc3c(cc2-4)OCO3)ccc1O  Criterion not met
 3  COc1ccc2cc3[n+](cc2c1OCCCOc1ccc(O)cc1)CCc1cc2c(cc1-3)OCO2      Criterion met
 4  COc1ccc2cc3[n+](cc2c1OCCCCOc1cccc(O)c1)CCc1cc2c(cc1-3)OCO2      Criterion met
 5  COc1ccc2[nH]cc(CCNC(=O)CCOc3c(OC)ccc4cc5[n+](cc34)CCc3cc4c(cc3-5)OCO4)c2c1  Criterion not met
 6  COc1ccc2cc3[n+](cc2c1OCCCOc1cccc(O)c1)CCc1cc2c(cc1-3)OCO2      Criterion met
 7  COc1ccc2cc3[n+](cc2c1OCCC(=O)NCCc1c[nH]c2ccccc12)CCc1cc2c(cc1-3)OCO2      Criterion met
 8  COc1ccc2cc3[n+](cc2c1OCCCCOc1ccc(O)cc1)CCc1cc2c(cc1-3)OCO2      Criterion met
 9  COc1ccc2cc3[n+](cc2c1OCCCCOc1ccccc1O)CCc1cc2c(cc1-3)OCO2      Criterion met
10  COc1ccc2cc3[n+](cc2c1OCCCOc1ccccc1O)CCc1cc2c(cc1-3)OCO2      Criterion met

---

# TARGET SYSTEM: Butyrylcholinesterase (Equus caballus)
# MEASUREMENT NOTES: Inhibition of equine serum BuChE using butyrylthiocholine chloride as substrate preincubated for 15 mins by Ellman's method
pIC50: −log10 of the molar value.
Parameter: pIC50. Scope: all listed entries.
QUANTITY MEASURED: pIC50

> print(dat)
                             molecule.smiles  measured.number
 1  COc1ccc2cc3[n+](cc2c1OCCCCOc1ccc(O)cc1)CCc1cc2c(cc1-3)OCO2             5.98
 2  COc1ccc2cc3[n+](cc2c1OCCC(=O)NCCc1c[nH]c2ccc(C)cc12)CCc1cc2c(cc1-3)OCO2             5.71
 3  COc1ccc2cc3[n+](cc2c1OCCCCOc1ccccc1O)CCc1cc2c(cc1-3)OCO2             5.68
 4  COc1ccc2cc3[n+](cc2c1OCCCOc1ccc(O)cc1)CCc1cc2c(cc1-3)OCO2             5.69
 5  COc1cc(/C=C/C(=O)OCCCOc2c(OC)ccc3cc4[n+](cc23)CCc2cc3c(cc2-4)OCO3)ccc1O             5.62
 6  COc1ccc2cc3[n+](cc2c1OCCCCOc1cccc(O)c1)CCc1cc2c(cc1-3)OCO2             5.62
 7  COc1ccc2cc3[n+](cc2c1OCCCOc1cccc(O)c1)CCc1cc2c(cc1-3)OCO2             5.95
 8  COc1ccc2cc3[n+](cc2c1OCCC(=O)NCCc1c[nH]c2ccccc12)CCc1cc2c(cc1-3)OCO2             5.79
 9  COc1ccc2cc3[n+](cc2c1OCCCOc1ccccc1O)CCc1cc2c(cc1-3)OCO2             5.76
10  COc1ccc2[nH]cc(CCNC(=O)CCOc3c(OC)ccc4cc5[n+](cc34)CCc3cc4c(cc3-5)OCO4)c2c1             5.57

---

# Lookup of reported inhibition keyed by entry
# MEASUREMENT NOTES: Inhibition of self-mediated amyloid beta (1 to 42) aggregation at 20 uM after 48 hrs by thioflavin T fluorescence assay
QUANTITY MEASURED: inhibition (%)

> print(dat)
                                   compound  measured.number
1  COc1ccc2[nH]cc(CCNC(=O)CCOc3c(OC)ccc4cc5[n+](cc34)CCc3cc4c(cc3-5)OCO4)c2c1             79.5
2       COc1cc(/C=C/C(=O)O)ccc1O [FERULATE]              6.1
3  COc1ccc2cc3[n+](cc2c1OCCC(=O)NCCc1c[nH]c2ccc(C)cc12)CCc1cc2c(cc1-3)OCO2             75.8
4  COc1ccc2cc3[n+](cc2c1OCCCCOc1cccc(O)c1)CCc1cc2c(cc1-3)OCO2             72.8

---

Here's what we have: IC50 numbers for Acetylcholinesterase (Electrophorus electricus).
QUANTITY MEASURED: IC50

> print(dat)
                                    compound       result
 1  COc1ccc2cc3[n+](cc2c1OCCCCOc1cccc(O)c1)CCc1cc2c(cc1-3)OCO2       547 nM
 2  COc1ccc2cc3[n+](cc2c1OCCCCOc1ccc(O)cc1)CCc1cc2c(cc1-3)OCO2       304 nM
 3  COc1ccc2cc3[n+](cc2c1OCCCOc1ccc(O)cc1)CCc1cc2c(cc1-3)OCO2       460 nM
 4  COc1ccc2cc3[n+](cc2c1OCCCOc1cccc(O)c1)CCc1cc2c(cc1-3)OCO2       628 nM
 5  COc1ccc2cc3[n+](cc2c1OCCCOc1ccccc1O)CCc1cc2c(cc1-3)OCO2       490 nM
 6  COc1ccc2cc3[n+](cc2c1OCCC(=O)NCCc1c[nH]c2ccc(C)cc12)CCc1cc2c(cc1-3)OCO2      1420 nM
 7  COc1ccc2[nH]cc(CCNC(=O)CCOc3c(OC)ccc4cc5[n+](cc34)CCc3cc4c(cc3-5)OCO4)c2c1      1440 nM
 8  COc1cc(/C=C/C(=O)OCCCOc2c(OC)ccc3cc4[n+](cc23)CCc2cc3c(cc2-4)OCO3)ccc1O      3210 nM
 9       COc1cc(/C=C/C(=O)O)ccc1O [FERULATE]  > 100000 nM
10  COc1ccc2cc3[n+](cc2c1OCCCCOc1ccccc1O)CCc1cc2c(cc1-3)OCO2       123 nM
11  COc1ccc2cc3[n+](cc2c1OCCC(=O)NCCc1c[nH]c2ccccc12)CCc1cc2c(cc1-3)OCO2      1110 nM

---

Listed compounds paired with reported inhibition
# MEASUREMENT NOTES: Inhibition of self-mediated amyloid beta (1 to 42) aggregation at 20 uM after 48 hrs by thioflavin T fluorescence assay
QUANTITY MEASURED: inhibition (%)

> print(dat)
                            molecule.smiles  quantity.measured  unit.descriptor  measured.number
1  COc1ccc2cc3[n+](cc2c1OCCCOc1cccc(O)c1)CCc1cc2c(cc1-3)OCO2         inhibition                %             85.9
2  COc1ccc2cc3[n+](cc2c1OCCCCOc1ccccc1O)CCc1cc2c(cc1-3)OCO2         inhibition                %             84.5
3  COc1ccc2cc3[n+](cc2c1OCCC(=O)NCCc1c[nH]c2ccccc12)CCc1cc2c(cc1-3)OCO2         inhibition                %             82.8
4  COc1ccc2cc3[n+](cc2c1OCCCOc1ccccc1O)CCc1cc2c(cc1-3)OCO2         inhibition                %             83.5
5  COc1ccc2cc3[n+](cc2c1OCCCCOc1ccccc1)CCc1cc2c(cc1-3)OCO2         inhibition                %             57.4
6  COc1ccc2cc3[n+](cc2c1OC)CCc1cc2c(cc1-3)OCO2         inhibition                %             36.3
7  COc1ccc2cc3[n+](cc2c1OCCCCOc1ccc(O)cc1)CCc1cc2c(cc1-3)OCO2         inhibition                %             86.6
8  COc1ccc2cc3[n+](cc2c1OCCCOc1ccc(O)cc1)CCc1cc2c(cc1-3)OCO2         inhibition                %               92
9  COc1cc(/C=C/C(=O)OCCCOc2c(OC)ccc3cc4[n+](cc23)CCc2cc3c(cc2-4)OCO3)ccc1O         inhibition                %             75.8

These measurements were taken from ChEMBL document CHEMBL1926506.
